Cited source for all entries: PubChem BioAssay (NCI)

Tested on: NCI-H226 lung
Assay: NCI-60 one-dose screen, 48 h (100 = growth as untreated, 0 = no growth, -100 = all killed)
Settings: 10 µM unless noted
Compounds without any hit were thinned out: in the full panel of roughly 83,000, 20% have a hit.
Outcome Measure: growth (%)
Quick reminder: number only, in %, skip the unit.

Use these answered entries as a reference point.
COc1ccc2c(c1)c(-c1nc(-c3c[nH]c4ncccc34)cs1)cn2CCO ... 36.5
CC1=CCC(OC(=O)C(C)(C)CC(O)(C(C)O)C(O)C2(C)C=CC(Cc3ccc(C(C)C)cc3)(C(C)C)CC2)(C(C)C)CC1 (stereo not given) ... 92.3
CC1C(/C=N/NC(N)=S)C(C#N)(C#N)C1(C#N)C#N (stereo not given) ... 101

The recorded growth for S=c1nc2oc(-c3ccccc3)c(-c3ccccc3)c2c(/N=C\c2ccco2)[nH]1 is 102

The recorded growth for N#CC1CCc2c(c(-c3ccc4nc(N)sc4c3)nc3ccc4[nH]ncc4c23)C1 (stereo not given) is 51.1

----------
Tested on: IGROV1 ovarian
Assay: NCI-60 one-dose screen, 48 h (100 = growth as untreated, 0 = no growth, -100 = all killed)
Conditions: 10 µM unless noted
Compounds without any hit were thinned out: in the full panel of roughly 83,000, 20% have a hit.
growth by entry:
Quick reminder: number only, in %, skip the unit.

CCCCCCCCCCCCCCCCCCOc1ccccc1CC(=O)NCC[N+]1(C)CCCCC1 ... -8.66
C=C(C)[C@@H]1CCC[C@]2(C(=O)N3CCN(C)CC3)CC[C@]3(C)[C@@H](CC[C@@H]4[C@@]5(C)CC/C(=N\NC(=O)c6ccncc6)C(C)(C)[C@@H]5CC[C@]43C)[C@@H]12 ... 82.7
NC(=O)c1cnc(Nc2cccc(N)c2)nc1NCCCNC(=O)C1CCC1 ... 65.8
CCSc1oc(C)nc1[P+](c1ccccc1)(c1ccccc1)c1ccccc1 ... 30.3

The recorded growth for O=C1c2ccccc2C(=O)C1c1ccc(Br)cc1 is 104

The recorded growth for C/C(Cc1ccc(Cl)cc1)=C(\c1ccc(OCCCN(C)C)cc1)c1ccc(OC(=O)Cc2ccccc2)cc1 is 106

The recorded growth for COC(=O)CCC/C=C\C[C@H]1C=CC(=O)/C1=C/C[C@@H](O)C/C=C\CC(F)(F)F is 12.1

----------
Tested on: A498 renal
Experiment: NCI-60 one-dose screen, 48 h (100 = growth as untreated, 0 = no growth, -100 = all killed)
Conditions: 10 µM unless noted
The panel holds about 83,000 compounds, 20% with a hit somewhere; the sample as a whole holds those more often.
Use 1 when the recorded growth is no lower than 90%; use -1 when it is lower.

CCOC(=O)CC1CSC(Nc2ccccc2)=N1 (stereo unspecified) ... -1
COc1ccc(Cn2cc3c(c2-c2ccccc2)CCc2cnoc2-3)cc1 ... -1
CC1C(/C=N/NC(N)=S)C(C#N)(C#N)C1(C#N)C#N (stereo unspecified) ... 1

API: the following record is the query input.
API: above_or_equal(metric=growth, cutoff=90%) for item CNC(=O)c1ccccc1Nc1nc(Nc2cc(OC)c(OC)c(OC)c2)ncc1Br
-1

----------
growth by entry:
Tested on: TK-10 renal
Test: NCI-60 one-dose screen, 48 h (100 = growth as untreated, 0 = no growth, -100 = all killed)
Settings: 10 µM unless noted
Compounds without any hit were thinned out: in the full panel of roughly 83,000, 20% have a hit. Calls of active or inactive are those of the source. How the source made its calls: active means growth percent below 10; inactive means the rest.

Use these answered entries as a reference point.
C/C(=N\O)c1ccc(NC(=O)CSc2nnc(-c3cc(-c4ccc(S(N)(=O)=O)cc4)nc4ccccc34)n2-c2ccccc2)cc1 ... 80.8% (inactive)
CCOC(=O)c1[nH]c2c(c1C)-c1[nH]c(=O)c(S(=O)(=O)c3ccccc3)cc1SC2 ... 13.1% [100 µM] (inactive)
CCN(CC)c1ccc(CNc2cc(C)nc3ccccc23)cc1 ... 67% (inactive)

The recorded growth for CCOC(=O)CC1CSC(Nc2ccccc2)=N1 (stereo not given) is 86% (inactive)

The recorded growth for CCN1CCN(CCNc2nccc(-c3c(-c4ccc(F)c(OC)c4)nc4sccn34)n2)S1(=O)=O is 118% (inactive)
